Recorded values, source patent US20170253656A1.

Consider the following binders and their measured kon readings.
system_tested: T1, hu-CD74 antigen (R&D SYSTEMS catalog #3590-CD-050) (human, UniProt P04233-2 73-232, limits assumed)
T1 construct: Bought antigen; also called rhCD74; human CD74
T1 sequence (looked up): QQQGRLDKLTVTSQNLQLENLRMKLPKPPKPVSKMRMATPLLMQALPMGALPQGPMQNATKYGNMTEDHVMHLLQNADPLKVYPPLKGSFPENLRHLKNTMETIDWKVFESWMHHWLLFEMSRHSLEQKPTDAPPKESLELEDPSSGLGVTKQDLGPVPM
assay_procedure: SPR (Biacore T200), IgG captured on anti-human Fc, rhCD74 analyte
Enter the number, and then the unit.

The following binders have reported results that may help.
HC 1251_A06 (wt)/LC 1337_A07 (g) (antibody, human IgG1, kappa, V domains shown, IgG format) VH: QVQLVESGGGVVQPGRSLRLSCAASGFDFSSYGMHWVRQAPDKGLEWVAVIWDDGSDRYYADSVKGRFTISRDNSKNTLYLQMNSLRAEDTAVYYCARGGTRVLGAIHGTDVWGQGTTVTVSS VL: DIQMTQSPSSVSASVGDRVTITCRASQGISSWVAWYQQKPGKAPKLLIYGASRLQSGVPSRFSGSGSGTDFTLTISSLQPEDFATYYCQQYHTYPLTFGGGTKVEIKR | 660000 M⁻¹ s⁻¹
HC 1251_A06 (wt)/LC 1337_A10 (wt) (antibody, human IgG1, kappa, V domains shown, IgG format) VH: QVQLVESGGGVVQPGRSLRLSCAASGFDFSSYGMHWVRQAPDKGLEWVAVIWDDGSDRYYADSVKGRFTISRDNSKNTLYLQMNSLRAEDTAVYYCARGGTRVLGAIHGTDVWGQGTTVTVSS VL: DIQMTQSPSSLSASVGDRVTITCRASQGISSWVAWYQQKPEKAPKSLIYGSSRLQSGVPSRFSGSGSGTDFTLTISSLQPEDFATYYCQQYNTYPLTFGGGTKVEIKR | 847000 M⁻¹ s⁻¹

# context switch: different binder, same kon
Reported kon ( HC 1251_A06 (g)/LC 1337_A07 (g) (antibody, human IgG1, kappa, V domains shown, IgG format) VH: QVQLVESGGGVVQPGRSLRLSCAASGFDFSSYGMHWVRQAPGKGLEWVAVIWDDGSDRYYADSVKGRFTISRDNSKNTLYLQMNSLRAEDTAVYYCARGGTRVLGAIHGTDVWGQGTTVTVSS VL: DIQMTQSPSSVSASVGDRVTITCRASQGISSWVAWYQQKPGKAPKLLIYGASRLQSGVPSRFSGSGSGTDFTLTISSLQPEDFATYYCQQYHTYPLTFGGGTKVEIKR ) = 424000 M⁻¹ s⁻¹
